Structures can show the parent of a compound that is named as a salt.
Give measured melting point for each item. Keep answers brief.

Query :: Can you share its melting point? I mean this molecule: NCc1cccc(-n2nnc3cnc(Nc4cccc(-c5cnco5)c4)nc32)c1 (as salt: HCl)
Result :: > 250 °C

Query :: Recorded melting point for CN1CCN(c2ccc(Nc3ncc4nnn(-c5cccc(CC#N)c5)c4n3)cc2)CC1 , please?
Result :: 210 to 212 °C

Query :: What value of melting point has been recorded for this entry: Fc1cccc(-n2nnc3cnc(Nc4cccc(-c5cnccn5)c4)nc32)c1
Result :: > 260 °C

Query :: Param item = O=[N+]([O-])c1cc(Nc2ncc3nnn(C4CCCCC4)c3n2)ccc1N1CCOCC1 ; retrieve measured melting point.
Result :: 161.9 °C

Query :: Query: melting point; subject: OCc1cccc(-n2nnc3cnc(Nc4cccc(-c5cnco5)c4)nc32)c1
Result :: 210 to 214 °C

Query :: Dear colleague, I am looking for the recorded melting point of the following molecule: Fc1cccc(-n2nnc3cnc(Nc4cccc(-c5cccnc5)c4)nc32)c1
Result :: 208 to 212 °C

Query :: # lookup: melting point of CN1CCN(c2cccc(Nc3ncc4nnn(-c5cccc(F)c5)c4n3)c2)CC1 (as salt: HCl)
Result :: > 250 °C

Query :: So what does the record say about melting point for N#CCc1cccc(-n2nnc3cnc(Nc4cccc(-c5ccnc(N)n5)c4)nc32)c1 ?
Result :: > 260 °C

Query :: Any idea what melting point was measured for Cn1nccc1-c1cccc(Nc2ncc3nnn(-c4ccccc4)c3n2)c1 ?
Result :: 216 °C

Query :: Find the recorded melting point belonging to CC(=O)NCc1cccc(-n2nnc3cnc(Nc4cccc(-c5cnco5)c4)nc32)c1 and report it.
Result :: 156 to 160 °C

Query :: Consider the molecule COCC(=O)NCc1cccc(-n2nnc3cnc(Nc4cccc(-c5cnco5)c4)nc32)c1 and give its measured melting point.
Result :: 210 to 214 °C

Query :: I have this molecule here, Brc1cccc(-n2nnc3cnc(Nc4cccc(C5=NCNC5)c4)nc32)c1 (as salt: HCl) , and I need its recorded melting point.
Result :: > 260 °C

Query :: What does the record list as melting point for CN1CCN(c2ccc(Nc3ncc4nnn(C5CCCCC5)c4n3)cc2)CC1 ?
Result :: 167 °C

Query :: Please give the measured melting point for this molecule: O=c1[nH]nc(-c2cccc(Nc3ncc4nnn(-c5cccc(F)c5)c4n3)c2)[nH]1
Result :: > 260 °C

The measured values listed here are drawn from patent US7449465B2.
